Test system: Staphylococcus aureus
procedure_summary: Antibacterial activity against Staphylococcus aureus ATCC 25923 assessed as inhibition of bacterial growth incubated for 24 hrs
Format: functional
The entries below come with measured MIC values attached.
Hi! Could you send only the number? It should be in µg/mL, unit omitted.

{"columns": ["smiles_structure", "u", "observed_value"],
 "data": [
  ["N#CCc1cc2c(cc1F)c(=O)c(C(=O)O)cn2Cc1cccc(Cl)c1", "µg/mL", 0.5],
  ["CC(C)=CCn1cc(C(=O)O)c(=O)c2cc(F)c(CC#N)cc21", "µg/mL", 0.25],
  ["O=C(O)c1cn(C2CC2)c2cc(N3CCNCC3)c(F)cc2c1=O", "µg/mL", 1],
  ["N#CCc1cc2c(cc1F)c(=O)c(C(=O)O)cn2Cc1ccc(C(F)(F)F)cc1", "µg/mL", 2],
  ["CCCn1cc(C(=O)O)c(=O)c2cc(F)c(CC#N)cc21", "µg/mL", 0.25]
]}

Continue with the next compound.
Notebook: CCn1cc(C(=O)O)c(=O)c2cc(F)c(CC(=O)O)cc21 , MIC read as 16

* * *

Tested on: Enterococcus faecalis
procedure_summary: Antibacterial activity against Enterococcus faecalis clinical isolate assessed as inhibition of bacterial growth incubated for 24 hrs
Type: functional
measure: MIC (µg/mL)
Hi! Could you send only the number? It should be in µg/mL, unit omitted.

Example entries begin here.
{"columns": ["smiles_structure", "tgt", "observed_value"],
 "data": [
  ["N#CCc1cc2c(cc1F)c(=O)c(C(=O)O)cn2C1CC1", "Enterococcus faecalis", 4],
  ["CCCCCCn1cc(C(=O)O)c(=O)c2cc(F)c(CC#N)cc21", "Enterococcus faecalis", 256],
  ["CCCCn1cc(C(=O)O)c(=O)c2cc(F)c(CC#N)cc21", "Enterococcus faecalis", 64],
  ["O=C(O)Cc1cc2c(cc1F)c(=O)c(C(=O)O)cn2C1CC1", "Enterococcus faecalis", 4],
  ["O=C(O)Cc1cc2c(cc1F)c(=O)c(C(=O)O)cn2Cc1ccccc1", "Enterococcus faecalis", 32]
]}

Continue with the next compound.
Notebook: C[C@H]1COc2c(CC#N)c(F)cc3c(=O)c(C(=O)O)cn1c23 , MIC read as 2

* * *

Tested on: Staphylococcus aureus
procedure_summary: Antibacterial activity against methicillin resistant Staphylococcus aureus clinical isolate assessed as inhibition of bacterial growth incubated for 24 hrs
Type: functional
Simple rule here: MIC less than 8 µg/mL is True, otherwise False.

Exam item: State whether 8 µg/mL exceeds MIC recorded for N#CCc1cc2c(cc1F)c(=O)c(C(=O)O)cn2CC1CC1 .
Marked response: True

Exam item: State whether 8 µg/mL exceeds MIC recorded for CCn1cc(C(=O)O)c(=O)c2cc(F)c(CC#N)c(F)c21 .
Marked response: True

Exam item: State whether 8 µg/mL exceeds MIC recorded for CCCCCn1cc(C(=O)O)c(=O)c2cc(F)c(CC#N)cc21 .
Marked response: True

Exam item: State whether 8 µg/mL exceeds MIC recorded for N#CCc1cc2c(cc1F)c(=O)c(C(=O)O)cn2Cc1ccc(Cl)c(Cl)c1 .
Marked response: False

Exam item: State whether 8 µg/mL exceeds MIC recorded for NC1CCN(c2c(F)cc3c(=O)c(C(=O)O)cn(C4CC4)c3c2Cl)C1 (centres undefined) [CLINAFLOXACIN] .
Marked response: True

Exam item: State whether 8 µg/mL exceeds MIC recorded for O=C(O)Cc1cc2c(cc1F)c(=O)c(C(=O)O)cn2Cc1ccccc1Cl .
Marked response: False
